tested on: human embryonic lung (HEL) fibroblasts; test: Cytotoxicity, cell morphology; type: cell-based; settings: HEL cells; minimum cytotoxic concentration altering cell morphology

molecule: Nc1ncnc2c1ncn2CCOCP(=O)(OCCOCCCCCCCCCCO)OCCOCCCCCCCCCCO
study_target: human embryonic lung (HEL) fibroblasts
Cytotoxicity Cell morphology (MCC) (HEL): 148 μM
//
molecule: O=c1[nH]c(=O)n([C@H]2C[C@H](O)[C@@H](CO)O2)cc1/C=C/Br
study_target: human embryonic lung (HEL) fibroblasts
Cytotoxicity Cell morphology (MCC) (HEL): >150 μM
//
molecule: Nc1nc(O)c2ncn(COC(CO)CO)c2n1
study_target: human embryonic lung (HEL) fibroblasts
Cytotoxicity Cell morphology (MCC) (HEL): >392 μM
//
molecule: Nc1ccn(C[C@@H](CO)OCP(=O)(O)O)c(=O)n1.O.O [(S)-HPMPC, Cidofovir]
study_target: human embryonic lung (HEL) fibroblasts
Cytotoxicity Cell morphology (MCC) (HEL): >317 μM
//
molecule: Nc1nc2c(ncn2COCCO)c(=O)[nH]1
study_target: human embryonic lung (HEL) fibroblasts
Cytotoxicity Cell morphology (MCC) (HEL): >222 μM
